experiment: Stability in human liver microsome after 15 mins; type: ADME; conditions: liver microsomes, read-out: Stability
Measured Metric: remaining at 0.25 h (%)
# value in %; strip the unit string

Inquiry: Data request, read-out remaining at 0.25 h, for `O=C(c1ccc(Cl)cc1NS(=O)(=O)c1cccc2nsnc12)N1CCCCC1`
Reply text: 19

###

test: Stability in dog liver S9 fraction after 30 mins; type: ADME, Canis lupus familiaris; settings: read-out: Stability
Measured Metric: remaining at 0.5 h (%)
# value in %; strip the unit string

Inquiry: Data request, read-out remaining at 0.5 h, for `O=C(c1ccc(Cl)cc1NS(=O)(=O)c1cccc2nsnc12)N1CCCCC1`
Reply text: 59

###

assay: Clearance in Beagle dog at 2 umol/kg, iv; assay type: ADME, organism-based, Canis lupus familiaris; settings: in vivo
The following compounds are shown together with reported clearance values.
# value in mL/min/kg; strip the unit string

{"Compound": "O=C(c1ccc(I)cc1NS(=O)(=O)c1cccc2nccnc12)N1CCOCC1", "Result Number": 1.62}

Now for another entry.
Inquiry: Data request, read-out clearance, for `O=C(c1ccc(Br)cc1NS(=O)(=O)c1cccc2nsnc12)N1CCCCC1`
Reply text: 11.7

###

assay: Stability in rat liver microsome after 30 mins; format: ADME; conditions: liver microsomes, read-out: Stability
The following compounds are shown together with reported remaining at 0.5 h values.
# value in %; strip the unit string

{"Compound": "O=C(c1ccc(Br)cc1NS(=O)(=O)c1cccc2nsnc12)N1CCCCC1", "Unit Info": "%", "remaining at 0.5 h": 8}
{"Compound": "O=C(c1cc(Cl)c(Cl)cc1NS(=O)(=O)c1cccc2nsnc12)N1CCCCC1", "Unit Info": "%", "remaining at 0.5 h": 8}
{"Compound": "O=C(c1ccc(Cl)cc1NS(=O)(=O)c1cccc2nsnc12)N1CCCCCC1", "Unit Info": "%", "remaining at 0.5 h": 2}
{"Compound": "O=C(c1ccc(I)cc1NS(=O)(=O)c1cccc2nccnc12)N1CCOCC1", "Unit Info": "%", "remaining at 0.5 h": 46}

Inquiry: Data request, read-out remaining at 0.5 h, for `O=C(c1ccc(Br)cc1NS(=O)(=O)c1cccc2nccnc12)N1CCCCC1`
Reply text: 8

Inquiry: Data request, read-out remaining at 0.5 h, for CC1CCCCN1C(=O)c1ccc(Cl)cc1NS(=O)(=O)c1cccc2nsnc12 (configuration not stated)
Reply text: 3

Inquiry: Data request, read-out remaining at 0.5 h, for `O=C(c1cc(Cl)ccc1NS(=O)(=O)c1cccc2nsnc12)N1CCCCC1`
Reply text: 9

###

assay: Partition coefficient, log D at pH 7.4; type: physicochemical; details: octanol/water
Measured Metric: logD
API note: the answer field is a bare number with no unit suffix.

Inquiry: Data request, read-out logD, for `O=C(c1ccc(Cl)cc1NS(=O)(=O)c1cccc2nsnc12)N1CCCCC1`
Reply text: 2.1

###

biological target: Gastrin/cholecystokinin type B receptor (Homo sapiens); conditions: read-out: Log Ki (converted)
Sequence (P32239 whole entry): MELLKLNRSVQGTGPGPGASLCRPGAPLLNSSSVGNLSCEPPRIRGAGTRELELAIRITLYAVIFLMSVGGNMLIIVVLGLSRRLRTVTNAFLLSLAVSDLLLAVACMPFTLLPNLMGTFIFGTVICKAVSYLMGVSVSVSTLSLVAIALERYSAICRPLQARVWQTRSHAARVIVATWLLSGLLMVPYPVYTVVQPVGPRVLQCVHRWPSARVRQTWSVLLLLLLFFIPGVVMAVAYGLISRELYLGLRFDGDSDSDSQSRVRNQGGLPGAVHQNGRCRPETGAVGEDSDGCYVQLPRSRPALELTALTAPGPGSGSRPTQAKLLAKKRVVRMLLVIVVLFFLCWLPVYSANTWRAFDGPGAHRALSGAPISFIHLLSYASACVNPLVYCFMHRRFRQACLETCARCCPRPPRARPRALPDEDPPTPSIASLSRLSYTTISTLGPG
Description: Displacement of [125I]CCK-8S from human CCK2R
The following compounds are shown together with reported Ki values.

Previously resolved entries follow.
{"Compound": "CC1CC(C)CN(C(=O)c2ccc(Cl)cc2NS(=O)(=O)c2cccc3nsnc23)C1 (stereo not given)", "Target Or Test System": "Gastrin/cholecystokinin type B receptor (Homo sapiens)", "Ki": "1260 nM"}
{"Compound": "O=C(c1cc(Br)ccc1NS(=O)(=O)c1cccc2nsnc12)N1CCCCC1", "Target Or Test System": "Gastrin/cholecystokinin type B receptor (Homo sapiens)", "Ki": "794 nM"}
{"Compound": "O=C(c1ccc(Cl)cc1NS(=O)(=O)c1cccc2nsnc12)N1CCCCC1", "Target Or Test System": "Gastrin/cholecystokinin type B receptor (Homo sapiens)", "Ki": "39.8 nM"}

Inquiry: Data request, read-out Ki, for `O=C(c1ccc(CS)cc1NS(=O)(=O)c1cccc2nsnc12)N1CCCCC1`
Reply text: 100 nM

Inquiry: Data request, read-out Ki, for `O=C(c1ccc(Br)cc1NS(=O)(=O)c1ccc2nsnc2c1)N1CCCCC1`
Reply text: > 10000 nM
